Assay Remarks: physchem
Condition Summary: dmso
Attribute Measured: solubility

Req: What value of solubility has been recorded for this entry: O=C(CCCCCCCC(=O)NCCO[C@@H]1O[C@H](CO)[C@@H](O)[C@H](O)[C@H]1O)NCCO[C@@H]1O[C@H](CO)[C@@H](O)[C@H](O)[C@H]1O
Resp: > 10000 µg/mL

* * *

Assign solubility to each entry below.
Assay Remarks: physchem
Condition Summary: hot water

Req: What value of solubility has been recorded for this entry: CCCCCCCCCCCC(=O)NCCO[C@H]1O[C@H](CO)[C@@H](O)[C@H](O)[C@H]1O
Resp: > 10000 µg/mL

Req: What value of solubility has been recorded for this entry: O=C(CCCCCCCC(=O)NCCO[C@@H]1O[C@H](CO)[C@@H](O)[C@H](O)[C@H]1O)NCCO[C@@H]1O[C@H](CO)[C@@H](O)[C@H](O)[C@H]1O
Resp: > 10000 µg/mL

* * *

Assay Remarks: solubility in water
Condition Summary: hot water
Assign solubility to each entry below.

Req: What value of solubility has been recorded for this entry: CCCCCCCCCC(=O)NCCO[C@@H]1O[C@H](CO)[C@@H](O)[C@H](O)[C@H]1O [Example 8]
Resp: > 10000 µg/mL

Req: What value of solubility has been recorded for this entry: CCCCCCCCCCCCCCCC(=O)NCCO[C@@H]1O[C@H](CO)[C@@H](O)[C@H](O)[C@H]1O [Example 1]
Resp: > 10000 µg/mL

Req: What value of solubility has been recorded for this entry: O=C(NCCO[C@@H]1O[C@H](CO)[C@H](O)[C@H](O)[C@H]1O)c1ccccc1 [Example 6]
Resp: > 10000 µg/mL

* * *

Assay Remarks: physchem
Condition Summary: dmso and hot isopropyl alcohol
Attribute Measured: solubility

Req: What value of solubility has been recorded for this entry: CCCCCCCCCCCCCCCCCC(=O)NCCO[C@@H]1O[C@H](CO)[C@@H](O)[C@H](O)[C@H]1O [Example 11]
Resp: > 10000 µg/mL

Recorded values, source patent EP0751947B1.
